The measured values listed here are drawn from patent US20250270343A1.

# study_target: T1, soluble cynomolgus GPNMB (recombinant extracellular domain) (cynomolgus, UniProt Q14956 23-499 (human entry), limits assumed)
# T1 chain: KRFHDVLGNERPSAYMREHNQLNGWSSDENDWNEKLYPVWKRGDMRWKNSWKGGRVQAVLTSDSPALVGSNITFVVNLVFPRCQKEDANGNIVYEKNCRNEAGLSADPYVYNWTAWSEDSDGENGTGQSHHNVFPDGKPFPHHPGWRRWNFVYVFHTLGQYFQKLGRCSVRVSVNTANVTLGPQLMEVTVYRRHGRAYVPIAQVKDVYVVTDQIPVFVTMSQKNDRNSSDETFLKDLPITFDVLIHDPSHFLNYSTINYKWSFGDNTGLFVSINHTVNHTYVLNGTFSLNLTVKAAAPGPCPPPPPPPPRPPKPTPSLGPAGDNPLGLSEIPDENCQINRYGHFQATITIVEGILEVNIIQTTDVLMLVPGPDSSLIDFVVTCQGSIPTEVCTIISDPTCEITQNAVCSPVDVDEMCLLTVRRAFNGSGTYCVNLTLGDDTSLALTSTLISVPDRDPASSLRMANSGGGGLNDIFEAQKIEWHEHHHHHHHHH
# procedure_summary: SPR Biacore, IgG captured
measured_metric: kon (M⁻¹ s⁻¹)
Value expressed in M⁻¹ s⁻¹; do not type the unit.

-- ask # get_value(readout='kon', item= anti-GPNMB antibody GPN-97 (antibody, V domains shown) VH: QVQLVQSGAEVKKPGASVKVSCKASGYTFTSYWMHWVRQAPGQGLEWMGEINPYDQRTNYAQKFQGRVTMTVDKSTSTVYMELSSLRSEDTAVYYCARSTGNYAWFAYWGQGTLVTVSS VL: DIVMTQSPDSLAVSLGERATINCKTSQDVSPSLAWYQQKPGQPPKLLIYSGSYRYTGVPDRFSGSGSGTDFTLTISSLQAEDVAVYYCQQHYSIPLTFGGGTKVEIK )
-- reply 79000

Next:
-- ask # get_value(readout='kon', item= anti-GPNMB antibody GPN-95 (antibody, V domains shown, also called PGN-95) VH: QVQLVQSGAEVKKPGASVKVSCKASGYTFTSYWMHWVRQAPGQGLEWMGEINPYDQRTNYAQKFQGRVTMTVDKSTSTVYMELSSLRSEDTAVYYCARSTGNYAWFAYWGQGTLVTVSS VL: DIVMTQSPDSLAVSLGERATINCKTSQDVSPSLAWYQQKPGQPPKLLIYSARYRYTGVPDRFSGSGSGTDFTLTISSLQAEDVAVYYCQQHYSIPLQFGGGTKVEIK )
-- reply 71000

-- ask # get_value(readout='kon', item= anti-GPNMB antibody GPN-82 (antibody, V domains shown) VH: QVQLQESGPGLVKPSETLSLTCTVSGISITTGNYRWSWIRQPPGKGLEWIGYIYYSGTIIYNPSLKSRVTITRDTSKNQFSLELSSVTAADTAVYYCARDLTHWYFDVWGQGTLVTVSS VL: DIVMTQSPDSLAVSLGERATINCKSSRSVDYYGIGFLNWYQQKPGQPPKLLIYATSTQGSGVPDRFSGSGSGTDFTLTISSLQAEDVAVYYCQQQKEVPPTFGGGTKVEIK )
-- reply 160000

-- ask # get_value(readout='kon', item= anti-GPNMB antibody GPN-98 (antibody, V domains shown) VH: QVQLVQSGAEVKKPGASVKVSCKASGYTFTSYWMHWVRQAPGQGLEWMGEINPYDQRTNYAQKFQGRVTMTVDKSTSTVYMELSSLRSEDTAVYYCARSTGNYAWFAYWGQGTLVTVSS VL: DIVMTQSPDSLAVSLGERATINCKASQDVSPSLAWYQQKPGQPPKLLIYSASYRYTGVPDRFSGSGSGTDFTLTISSLQAEDVAVYYCQQHYSIPLTFGGGTKVEIK )
-- reply 74000

-- ask # get_value(readout='kon', item= anti-GPNMB antibody GPN-90 (antibody, V domains shown) VH: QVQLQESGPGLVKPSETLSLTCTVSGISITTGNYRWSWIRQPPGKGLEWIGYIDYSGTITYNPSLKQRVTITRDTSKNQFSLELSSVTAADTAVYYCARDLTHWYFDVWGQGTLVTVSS VL: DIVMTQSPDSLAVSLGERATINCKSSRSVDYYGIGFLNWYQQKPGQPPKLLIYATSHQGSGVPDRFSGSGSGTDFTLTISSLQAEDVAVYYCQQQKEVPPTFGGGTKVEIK )
-- reply 160000

-- ask # get_value(readout='kon', item= anti-GPNMB antibody GPN-94 (antibody, V domains shown) VH: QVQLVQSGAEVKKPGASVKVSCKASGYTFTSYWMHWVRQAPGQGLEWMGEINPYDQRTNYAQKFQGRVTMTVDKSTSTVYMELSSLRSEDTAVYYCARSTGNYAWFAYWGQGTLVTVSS VL: DIVMTQSPDSLAVSLGERATINCKTSQDVSPSLAWYQQKPGQPPKLLIYSASKRYTGVPDRFSGSGSGTDFTLTISSLQAEDVAVYYCQQHYSIPLTFGGGTKVEIK )
-- reply 78000

-- ask # get_value(readout='kon', item= anti-GPNMB antibody GPN-96 (antibody, V domains shown) VH: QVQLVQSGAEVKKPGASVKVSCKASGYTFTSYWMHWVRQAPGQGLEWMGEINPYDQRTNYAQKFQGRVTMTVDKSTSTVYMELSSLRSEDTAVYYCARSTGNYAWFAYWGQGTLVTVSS VL: DIVMTQSPDSLAVSLGERATINCKASQDVSPSLAWYQQKPGQPPKLLIYRASYRYTGVPDRFSGSGSGTDFTLTISSLQAEDVAVYYCQQHYSIPLTFGGGTKVEIK )
-- reply 77000

-- ask # get_value(readout='kon', item= anti-GPNMB antibody GPN-92 (antibody, V domains shown, humanized GPN-08) VH: QVQLVQSGAEVKKPGASVKVSCKASGYTFTSYWMHWVRQAPGQGLEWMGEINPSDGRTNYAQKFQGRVTMTVDKSTSTVYMELSSLRSEDTAVYYCARSGGNYAWFAYWGQGTLVTVSS VL: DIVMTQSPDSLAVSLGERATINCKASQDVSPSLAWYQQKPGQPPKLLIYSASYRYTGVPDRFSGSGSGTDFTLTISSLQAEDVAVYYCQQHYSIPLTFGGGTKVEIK )
-- reply 83000

-- ask # get_value(readout='kon', item= anti-GPNMB antibody GPN-91 (antibody, V domains shown) VH: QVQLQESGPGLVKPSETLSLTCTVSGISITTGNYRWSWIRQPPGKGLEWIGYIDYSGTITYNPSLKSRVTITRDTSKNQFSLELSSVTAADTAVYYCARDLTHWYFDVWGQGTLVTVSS VL: DIVMTQSPDSLAVSLGERATINCKSSRSVDYYGIGFLNWYQQKPGQPPKLLIYATSHQGSGVPDRFSGSGSGTDFTLTISSLQAEDVAVYYCQQQKERPPTFGGGTKVEIK )
-- reply 150000

-- ask # get_value(readout='kon', item= anti-GPNMB antibody GPN-85 (antibody, V domains shown) VH: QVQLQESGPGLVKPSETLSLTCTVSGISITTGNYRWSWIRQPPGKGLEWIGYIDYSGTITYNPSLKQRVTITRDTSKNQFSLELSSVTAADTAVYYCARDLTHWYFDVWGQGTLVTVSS VL: DIVMTQSPDSLAVSLGERATINCKSSRSVDYFGIGFLNWYQQKPGQPPKLLIYATSHQGSGVPDRFSGSGSGTDFTLTISSLQAEDVAVYYCQQQKEVPPTFGGGTKVEIK )
-- reply 150000
